Please respond with reported GI50 for every item in the list.
Tested on: DMS-114
METHOD_SUMMARY: NCI tumour cell line growth inhibition, 48 h
The source made the active and inactive calls. No stated cut-off is given here; in the data, active = GI50 up to about 1.1 µM and inactive = higher.

According to the records, this molecule N#CCCN(C1=NN(C(=O)CC(=O)Nc2ccc(Cl)cc2)C(c2ccccc2)C1)c1ccc(Cl)cc1 (stereo not drawn) displays GI50 of > 100 µM (inactive)

According to the records, this molecule CSC(C1c2ccccc2N(C)C2=NC(=O)N(C)C(=O)C21Cl)S(=O)(=O)c1ccc(C)cc1 (stereo not drawn) displays GI50 of 49.1 µM (inactive)

According to the records, this molecule Cc1ccc2nc3c(Cl)cc(=O)cc-3sc2c1 displays GI50 of 20.4 µM (inactive)

According to the records, this molecule N=c1n(CC(=O)NC23CC4CC(CC(C4)C2)C3)c2ccccc2n1CC(=O)NC12CC3CC(CC(C3)C1)C2 displays GI50 of 1.93 µM (inactive)

According to the records, this molecule CCN(CC)CCNc1ccc2ncn3c4ccccc4c(=O)c1c23 displays GI50 of 5.07 µM (inactive)

According to the records, this molecule COc1ccc(NC(=O)C2C(=O)N(c3ccc(OC)cc3)C(=O)/C2=N\NC(N)=O)cc1 (stereo not drawn) displays GI50 of 63.7 µM (inactive)

According to the records, this molecule CN(C(=O)c1cccs1)C(=S)N1CCN(c2ccccn2)CC1 displays GI50 of > 100 µM (inactive)

According to the records, this molecule CC1C(=O)O[C@H]2C1CC[C@@]1(C)[C@H](O)CC[C@@]13C[C@]2(O)OO3 (stereo partly drawn) displays GI50 of > 100 µM (inactive)

According to the records, this molecule OC12c3ccccc3C3CCC4(OCCO4)C3C1c1ccccc12 (stereo not drawn) displays GI50 of 53.6 µM (inactive)

According to the records, this molecule CC1c2c(Cl)nc3ccccc3c2Oc2c1c(Cl)nc1ccccc21 displays GI50 of 66.1 µM (inactive)

According to the records, this molecule C[C@]12CC[C@H](OC3CCCCO3)CC1=CC[C@@H]1C2CC[C@]2(C)/C(=N/O)CCC12 (stereo partly drawn) displays GI50 of 17.5 µM (inactive)

According to the records, this molecule CC(C)(C)NNC(=O)/C(=C/c1ccc(Oc2ccc(Cl)c(Cl)c2)cc1)NC(=O)c1ccccc1 displays GI50 of 18.5 µM (inactive)

According to the records, this molecule CC1=C(/C=C/C(C)=C/C=C/C(C)=C/C=C/C=C(C)/C=C/C=C(C)/C=C/C=C(C)/C=C/C=C(\C)C(=O)O)C(C)(C)CCC1 displays GI50 of > 100 µM (inactive)

According to the records, this molecule Cc1ccc(C)c2c1C1CCCCC3(OCCCO3)C21O (stereo not drawn) displays GI50 of 80 µM (inactive)

According to the records, this molecule O=c1[nH]c2c(O)cccc2c2cc3c(c(O)c12)OCO3 displays GI50 of 19.1 µM (inactive)

According to the records, this molecule O=c1c2cc(Br)cc(Br)c2nc(CCCl)n1-c1ccc(O)c([N+](=O)[O-])c1 displays GI50 of 19.1 µM (inactive)

According to the records, this molecule CCOC(=O)C(=Cc1ccc(Oc2ccccc2)cc1)C(=O)OCC displays GI50 of 3.07 µM (inactive)

According to the records, this molecule Cc1cc(C)c(C(=O)c2no[n+]([O-])c2C(=O)c2c(C)cc(C)c(Br)c2C)c(C)c1Br displays GI50 of 10.8 µM (inactive)

----------
Tested on: T47D
METHOD_SUMMARY: NCI tumour cell line growth inhibition, 48 h
Structures can show the parent of a compound that is named as a salt. Activity calls are given as the source filed them. No stated cut-off is given here; in the data, active = GI50 up to about 1.1 µM and inactive = higher.
Respond with a class label; see active, inactive

Short answer needed: outcome of this test for O=C(OCc1ccccc1[N+](=O)[O-])N1c2ccccc2[C@@]23O[C@]24CCC[C@H]3C#C/C=C\C#C[C@H]14 ?
inactive

Short answer needed: outcome of this test for CC(=O)Nc1ccccc1NC1CC(C)N(c2ccccc2)N1C(C)=O (stereo not drawn) ?
inactive

Short answer needed: outcome of this test for CNc1ccccc1S(=O)(=O)c1ccccc1[N+](=O)[O-] ?
inactive

Short answer needed: outcome of this test for CN(C)c1n/c(=N/Cc2ccccn2)ss1 ?
inactive

Short answer needed: outcome of this test for O=c1c2c([N+](=O)[O-])cccc2nc2[nH]c3ccccc3n12 ?
inactive

Short answer needed: outcome of this test for O=[N+]([O-])c1cc([As](Br)c2ccc(O)c([N+](=O)[O-])c2)ccc1O ?
active

Short answer needed: outcome of this test for Cc1cc(N(CCC#N)CCC#N)ccc1/C=C(\NC(=O)/C=C/c1ccccc1)C(=O)Nc1ccc(Cl)cc1 ?
inactive

Short answer needed: outcome of this test for CCOC(=O)N1CCC2(CC1)C[C@@](C(C)=O)(c1ccccc1)C(C)O2 (stereo partly drawn) ?
inactive

Short answer needed: outcome of this test for CC(C)(C)OC(=O)CC(NC(=O)OC(C)(C)C)C(=O)Oc1ccc([N+](=O)[O-])cc1 (stereo not drawn) ?
inactive

Short answer needed: outcome of this test for C/C(=C\COP(=O)(O)CP(=O)(O)O)CC/C=C(\C)CNc1ccccc1 ?
inactive

Short answer needed: outcome of this test for CCOC(=O)C(=Cc1ccc(Oc2ccccc2)cc1)C(=O)OCC ?
inactive

Short answer needed: outcome of this test for COc1cc2nc(-c3cccs3)nc(N3CCN(c4ccccc4C(F)(F)F)CC3)c2cc1OC ?
inactive

Short answer needed: outcome of this test for O=C(CN1CCCC1)Nc1ccc2sc3ccccc3c(=O)c2n1 ?
inactive

Short answer needed: outcome of this test for O=C1CC(NC2CC(=O)c3c(Br)sc(Br)c32)c2c(Br)sc(Br)c21 (stereo not drawn) ?
inactive

Short answer needed: outcome of this test for CC(=O)O[C@H]1C[C@H]2C(=S)Nc3ccccc3C(=S)N2C1 ?
inactive

Short answer needed: outcome of this test for Cc1nc(O)c2ncn(CCO)c2n1 ?
inactive

Short answer needed: outcome of this test for Oc1ccc(C(O)C2CCCCN2)cc1O (stereo not drawn) [RIMITEROL HYDROBROMIDE] ?
inactive

Short answer needed: outcome of this test for O=c1c(Sc2c(SCSc3cnc4ccccc4c3Sc3c[nH]c4ccccc4c3=O)cnc3ccccc23)c[nH]c2ccccc12 ?
inactive

----------
System: Malme-3M
METHOD_SUMMARY: NCI tumour cell line growth inhibition, 48 h
Active and inactive are the calls of the source. No stated cut-off is given here; in the data, active = GI50 up to about 1.1 µM and inactive = higher.
ENDPOINT_NAME: GI50

According to the records, this compound Cc1cc(C)c(C(=O)c2no[n+]([O-])c2C(=O)c2c(C)cc(C)c(Br)c2C)c(C)c1Br displays GI50 of 14 µM (inactive)

According to the records, this compound COc1ccc(C(=C2C(=O)OC(=O)C2=C(C)C)c2ccc(OC)cc2)cc1 displays GI50 of 92 µM (inactive)

According to the records, this compound COc1cc(/C=C/C(=O)OCCc2ccccc2)ccc1O displays GI50 of 16.4 µM (inactive)

According to the records, this compound CN(C(=O)c1cccs1)C(=S)N1CCN(c2ccccn2)CC1 displays GI50 of > 100 µM (inactive)

----------
Tested on: CAKI-1
METHOD_SUMMARY: NCI tumour cell line growth inhibition, 48 h
Active and inactive are the calls of the source. Rule as the data show it: active = GI50 up to about 1.1 µM and inactive = higher.
Respond with a class label; see true (1) for active, false (0) for inactive

Short answer needed: outcome of this test for CCOC(=O)Cn1c(=O)c2cc(-c3ccccc3)cc3c(Cl)nc4c(OC)c(OC)cc1c4c32 ?
false (0)

Short answer needed: outcome of this test for CCOC(=O)n1[nH]c(=O)n(-c2ccccc2)c1=O ?
false (0)

Short answer needed: outcome of this test for COc1cc(/C=C2\N=C(c3ccccc3)N(/N=C/c3cc4cc(C)ccc4nc3Cl)C2=O)ccc1O ?
false (0)

Short answer needed: outcome of this test for COc1ccc(NC(=O)C2C(=O)N(c3ccc(OC)cc3)C(=O)/C2=N\NC(N)=O)cc1 (stereo not given) ?
false (0)

Short answer needed: outcome of this test for Cc1cn([C@H]2C=C[C@@H](CO)O2)c(=O)[nH]c1=O ?
false (0)

Short answer needed: outcome of this test for O=C(O)C1=C(C(=O)O)Oc2ccccc2O1 ?
false (0)

Short answer needed: outcome of this test for COc1cc2c(c(OC)c1OC)C(=O)[C@@H]1[C@H]2N1C(N)=O ?
false (0)

Short answer needed: outcome of this test for CC1(C)COC(c2cccc(C(=O)c3ccccc3)c2)=N1 ?
false (0)

Short answer needed: outcome of this test for CC(=O)c1c(CO[N+](=O)[O-])[n+]([O-])c2ccccc2[n+]1[O-] ?
false (0)

Short answer needed: outcome of this test for CCOC(=O)/C(=C\NC(=S)Nc1ccc(OCC)cc1)C(=O)c1ccccc1 ?
false (0)

Short answer needed: outcome of this test for COc1cc2ccnc(-c3c4ccccc4c(N)c4c(OC)c(OC)ccc34)c2cc1OC ?
false (0)

Short answer needed: outcome of this test for OC1(C(F)(F)F)OCCN=C1C(F)(F)F (stereo not given) ?
false (0)

Short answer needed: outcome of this test for CC(=O)OC(C)(C)[C@@H]1CC[C@]2(C)/C=C/[C@H](C)C[C@@H](O)C3=C(C)C[C@@H](O3)C12 (stereo not given in full) ?
false (0)

Short answer needed: outcome of this test for O=C(O)CCCc1nc2c(n1Cc1ccccc1)C(=O)c1ccccc1C2=O ?
false (0)

Short answer needed: outcome of this test for CCOC(=O)c1nnc2c(C(=O)OCC)c3ccccc3n2c1N ?
false (0)

Short answer needed: outcome of this test for CC(=O)NNC(=O)C1CCCCN1 (stereo not given) ?
false (0)

Short answer needed: outcome of this test for CC(=O)OCC1OC(n2cnc3nc(Br)[nH]c(=O)c32)C(OC(C)=O)C1OC(C)=O (stereo not given) ?
false (0)

Short answer needed: outcome of this test for C/C(=N/NS(=O)(=O)c1ccc(C)cc1)c1cccc[n+]1[O-] ?
false (0)

Short answer needed: outcome of this test for OCCN(CCO)c1ccc2c(c1)Cc1ccccc1-2 ?
false (0)

Short answer needed: outcome of this test for COc1cc(/C=C/C(=O)OCCc2ccccc2)ccc1O ?
false (0)

Short answer needed: outcome of this test for C/C(=N\NC(=S)N1CCCCCC1)c1cccc2cccnc12 ?
true (1)

Short answer needed: outcome of this test for CC(=O)Nc1cc2ccc(=O)oc2cc1Cl ?
false (0)

Short answer needed: outcome of this test for CC(=O)O[C@H]1C[C@H]2C(=S)Nc3ccccc3C(=S)N2C1 ?
false (0)

Short answer needed: outcome of this test for COC(=O)CNC(=O)CSc1nnc(COc2ccc(Cl)cc2)n1-c1ccccc1 ?
false (0)

Short answer needed: outcome of this test for Cc1c(C(=O)CC(=O)C(=O)Nc2cccc(C(F)(F)F)c2)[n+]([O-])c2ccccc2[n+]1[O-] ?
false (0)

Short answer needed: outcome of this test for CC(=O)c1ccc(NC(=O)C(=O)CC(=O)c2sc(-n3nc(-c4ccccc4)cc3-c3ccccc3)nc2C)cc1 ?
false (0)

Short answer needed: outcome of this test for c1cc2nsnc2c2c[nH]cc12 ?
false (0)

Short answer needed: outcome of this test for CSC(C1c2ccccc2N(C)C2=NC(=O)N(C)C(=O)C21Cl)S(=O)(=O)c1ccc(C)cc1 (stereo not given) ?
false (0)

Short answer needed: outcome of this test for CC1(C)CCCCCCC2CC2CCCCCC(C)(C)C1=O (stereo not given) ?
false (0)

Short answer needed: outcome of this test for COC(=O)C(N)CCCC(N)C(=O)NC(C)C(=O)NC(CCC(=O)NCCNCCNc1c2ccccc2nc2cccc([N+](=O)[O-])c12)C(N)=O (stereo not given) ?
false (0)

src = ChEMBL document CHEMBL1201862
